# target-or-system: T1, rat GIP receptor (rat) (UniProt P43219)
# T1 sequence (looked up): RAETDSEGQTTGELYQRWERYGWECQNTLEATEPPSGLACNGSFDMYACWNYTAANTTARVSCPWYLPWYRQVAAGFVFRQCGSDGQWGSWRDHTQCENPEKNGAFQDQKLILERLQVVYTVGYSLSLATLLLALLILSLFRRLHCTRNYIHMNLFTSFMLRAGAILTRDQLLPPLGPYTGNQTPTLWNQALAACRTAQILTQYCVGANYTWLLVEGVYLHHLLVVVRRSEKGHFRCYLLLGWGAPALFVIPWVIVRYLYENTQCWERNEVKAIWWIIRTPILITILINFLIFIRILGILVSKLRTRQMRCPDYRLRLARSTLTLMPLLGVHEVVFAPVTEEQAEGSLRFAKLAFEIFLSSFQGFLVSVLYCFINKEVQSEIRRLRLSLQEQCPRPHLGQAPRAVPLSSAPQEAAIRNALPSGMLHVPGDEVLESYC
# assay-protocol: cell-based or functional assay

{"binder": "IP307 (Fc fusion) YSEGTFTSDVSSYMERQAIDEFIAWLLKQGAAAGGSGSTASSGSGSATGGGGAATHTCPPC", "cAMP EC50 (nM)": 5.2}
{"binder": "IP392 (Fc fusion) YSEGTFISDYSIAMDKIHQQDFVNWLLAQKGAANDWKHNITQGGGGSGGGGSGGGGSGGGGSGGGGSGGGGSACPPC", "cAMP EC50 (nM)": 0.0076}
{"binder": "IP289 (Fc fusion) YSEGTFTSDYSKLLEKEAERLFIEWLLKGPGGGGGSGGGGSGGGGSGGGGSATHTCPPC", "cAMP EC50 (nM)": 0.02}
{"binder": "IP331 (Fc fusion) YSEGTFTSDYSKLLERQAIDEFIADLLKGGGGGGGSGGGGSGGGGSGGGGSGGGGSGGGGSA", "cAMP EC50 (nM)": 0.06}
{"binder": "IP250 (Fc fusion) YSEGTFTSDVSIAMDRQAIDEFIAWLLKGGAAAGGSGSTASSGSGSATGGGGAATHTCPPCPAPEF", "cAMP EC50 (nM)": 5.3}
{"binder": "IP209 (Fc fusion) YSEGTFTSDYSSYMERQAIDEFIAWLLKGGAAAGGSGSTASSGSGSATGGGGAATHTCPPCPAPEF", "cAMP EC50 (nM)": 0.22}
{"binder": "IP346 (Fc fusion) YSEGTFTSDYSKLLERQAIDEFIAFLLKGGGGGGGSGGGGSGGGGSGGGGSGGGGSGGGGSA", "cAMP EC50 (nM)": 0.01}
{"binder": "IP359 (Fc fusion) YSEGTFTSDYSKLLEEEAVRLFIEHLLAGGGGGGSGGGGSGGGGSGGGGSATHTCPPC", "cAMP EC50 (nM)": 0.039}
{"binder": "IP305 (Fc fusion) YSEGTFISDYSIALAAAAVRDFVNWLLAGGGGGGGSGGGGSGGGGSGGGGSATHTCPPC", "cAMP EC50 (nM)": 1.7}
{"binder": "IP315 (Fc fusion) YSEGTFISDYSSYLERQAIDEFIAWLLKGGAAAGGSGSTASSGSGSATGGGGAATHTCPPC", "cAMP EC50 (nM)": 0.096}
{"binder": "IP373 (Fc fusion) YSEGTHTSDFSKLLERQAIDEFIAWLLKGGAAAGGSGSTASSGSGSATGGGGAATHTCPPC", "cAMP EC50 (nM)": 0.035}
{"binder": "IP308 (Fc fusion) YSEGTFISDYSIALAAAAAKDFVNWLLAGGGGGGGSGGGGSGGGGSGGGGSATHTCPPC", "cAMP EC50 (nM)": 0.09}
{"binder": "IP386 (Fc fusion) YSEGTFISDYSIAMDKIHQQDFVNWLLAQKGGGGGSGGGGSGGGGSGGGGSACPPC", "cAMP EC50 (nM)": 0.0085}
{"binder": "IP344 (Fc fusion) YSEGTFISDYSIAMDKIHQQDFVNWLLAQKGGGGGSGGGGSGGGGSGGGGSGGGGSA", "cAMP EC50 (nM)": 0.0062}
{"binder": "IP350 (Fc fusion) YSEGTFTSDYSKLLERQAIDEFIAGLLKGGGGGGGSGGGGSGGGGSGGGGSGGGGSGGGGSA", "cAMP EC50 (nM)": 0.024}
{"binder": "IP299 (Fc fusion) YSEGTFISDYSKLLEEEAVRDFVEWLKAGGGGGGGSGGGGSGGGGSGGGGSATHTCPPC", "cAMP EC50 (nM)": 0.11}
{"binder": "IP342 (Fc fusion) YSEGTFTSDYSAAAEAAAAAAFAAWLAAAAGGGGGSGGGGSGGGGSGGGGSACPPC", "cAMP EC50 (nM)": 5.1}
{"binder": "IP385 (Fc fusion) YSEGTFTSDYSIYLDRQAIDEFIAWLLKGGGGGGGSGGGGSGGGGSGGGGSACPPC", "cAMP EC50 (nM)": 1.1}
{"binder": "IP369 (Fc fusion) YSEGTFTSDYSKLLERQAIDEFIAHLLKGGGGGGGSGGGGSGGGGSGGGGSGGGGSGGGGSA", "cAMP EC50 (nM)": 0.02}
{"binder": "IP330 (Fc fusion) YSEGTFTSDYSKLLERQAIDEFIALLLKGGGGGGGSGGGGSGGGGSGGGGSGGGGSGGGGSA", "cAMP EC50 (nM)": 0.023}
{"binder": "IP394 (Fc fusion) YSEGMHTSDLSKLLERQAIDEFIAWLLKGGAAAGGSGSTASSGSGSATGGGGAATHTCPPC", "cAMP EC50 (nM)": 0.06}
